- testedTarget: T1, CRBN, Q96SW2;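 further: pooled lentiviral library of zinc finger degron-EGFP fusions in mCherry-positive Jurkat cells, FACS-sorted after compound exposure, with degron abundance counted by next-generation sequencing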
- T1 chain: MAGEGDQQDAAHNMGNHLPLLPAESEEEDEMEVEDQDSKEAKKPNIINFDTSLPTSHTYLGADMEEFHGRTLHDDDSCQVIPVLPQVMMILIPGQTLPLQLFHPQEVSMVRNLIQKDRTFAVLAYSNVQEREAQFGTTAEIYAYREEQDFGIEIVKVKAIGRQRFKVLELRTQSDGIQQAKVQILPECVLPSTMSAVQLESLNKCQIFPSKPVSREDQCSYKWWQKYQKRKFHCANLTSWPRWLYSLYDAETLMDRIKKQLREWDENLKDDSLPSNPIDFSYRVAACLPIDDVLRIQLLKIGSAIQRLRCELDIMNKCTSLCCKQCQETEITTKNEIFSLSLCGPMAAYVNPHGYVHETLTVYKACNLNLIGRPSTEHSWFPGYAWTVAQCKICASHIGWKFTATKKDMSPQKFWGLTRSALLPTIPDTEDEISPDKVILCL
- methodNotes: log2 fold change of degron read counts, EGFP-low vs EGFP+ sorted cells (limma voom), compound-induced degradation; higher = more compound-induced degradation of the degron-EGFP fusion; degrons are variants of IKZF1/3 zinc finger 2; compound dose not given here
- studyConditions: Jurkat; 18 h; compound: compound 33 (diphenyl IMiD analogue)
The full ranking holds about 8,300 sequences; the median of “log2 fold change of degron read counts, EGFP-low vs EGFP+ sorted cells (limma voom), compound-induced degradation” is about -1.1, and the highest 2% start at about 3.2. Shown is part of a subset that was picked to be rich in the highest values.
Classification field: TRUE = log2 fold change of degron read counts at or over 2; FALSE = log2 fold change of degron read counts under 2.

### Prompt Test whether the sequence FTCPQCGAWFTQKGNLLRHIKL [46F_47T_49P_50Q_52G_53A_54W_55F_67L_, Q9UKT9] records log2 fold change of degron read counts of 2 or higher.
### Response FALSE

### Prompt Field entry: FSCEICGAAFTQKGNLLRHIKL [46F_47S_49E_50I_52G_53A_54A_55F_67L_, Q9UKT9]
### Response TRUE

### Prompt Param item: FHCPICGAPFTQKGNLLRHIKL [46F_47H_49P_50I_52G_53A_54P_55F_67L_, Q9UKT9]
### Response TRUE

### Prompt What about FSCDVCGATFTQKGNLLRHIKL [46F_47S_49D_50V_52G_53A_54T_55F_67L_, Q9UKT9] ?
### Response FALSE

### Prompt Please answer likewise for FTCEICGAAFTQKGNLLRHIKL [46F_47T_49E_50I_52G_53A_54A_55F_67L_, Q9UKT9]
### Response TRUE

### Prompt Note, next up: LMCEICGFLCTQKGNLLRHIKL [46L_47M_49E_50I_52G_53F_54L_55C_67L_, Q9UKT9]
### Response FALSE

### Prompt For LCCNQCGFACTQKGNLLRHIKL [46L_47C_49N_50Q_52G_53F_54A_55C_67L_, Q9UKT9] then?
### Response FALSE

### Prompt Now give it for FMCEVCGAKFTQKGNLLRHIKL [46F_47M_49E_50V_52G_53A_54K_55F_67L_, Q9UKT9] too.
### Response FALSE

### Prompt Same lookup for FGCPICGADFTQKGNLLRHIKL [46F_47G_49P_50I_52G_53A_54D_55F_67L_, Q9UKT9] , please.
### Response FALSE

### Prompt Now the sequence FTCPICGHPFTQKGNLLRHIKL [46F_47T_49P_50I_52G_53H_54P_55F_67L_, Q9UKT9]
### Response FALSE

### Prompt Also FICEICGAVFTQKGNLLRHIKL [46F_47I_49E_50I_52G_53A_54V_55F_67L_, Q9UKT9] ?
### Response TRUE
